B1: H2-Kb / B2 (parent)
chain 1: GEQVEQRPPHLSVREGDSAVIICTYTDPNSYYFFWYKQEPGAGLQLLMKVFSSTEINEGQGFTVLLNKKDKQLSLNLTAAHPGDSAVYFCAVSQMSNYNVLYFGSGTKLTVEP
chain 2: EAAVTQSPRNKVAVTGGKVTLSCNQTNNHNNMYWYRQDTGHGLRLIHYSYGAGSTEKGDIPDGYKASRPSQENFSLILELATPSQTSVYFCASGTGGSGQLYFGEGSKLTVL
chain 3: not shown
chain 4: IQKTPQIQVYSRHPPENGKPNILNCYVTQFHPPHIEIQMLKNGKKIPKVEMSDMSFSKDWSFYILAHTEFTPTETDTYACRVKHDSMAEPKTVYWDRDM
chain 5: SIINFEKL

variants of: B1; assay: % of reporter cells activated (NFAT-GFP), raw; conditions: with B2; scale: % of reporter cells activated; further: test concentration or dose not given here
OBSERVATION TYPE: ratio to parent

>>> print(df.to_string())
   mutant_name  observation_type  numeric_result
0  chain 5 K7H   ratio to parent            4.08
1  chain 5 I2N   ratio to parent           0.589
2  chain 5 S1G   ratio to parent            4.72
3  chain 5 L8K   ratio to parent            1.17

1: chain 5 N4W
2: chain 5 K7P
QUERY: Just curious, which one has the larger ratio to parent reading, 1 or 2 ? Mark your selection by writing its label.
RESULT: 2

Entry source: paper PMC11480844
